The reader will find reported pIC50 values listed item by item below.
- protocol_details: Cytotoxicity against human PC3 cells after 3 days by MTT assay
- Assay type: functional, cell-based
- measurement_parameters: PC-3, 72 h
Lab note — pIC50 values are minus log10 of concentrations in M.

Reference set (3 entries):
molecule: COc1cc(O)c(C=O)cc1OC
pIC50: 4.22

molecule: COc1cccc2c(=O)c3c(O)cc4c(c3n(C)c12)C=CC(C)(C)O4
pIC50: 4.15

molecule: COc1ccc2c(=O)c3c(O)cc4c(c3n(C)c2c1C1(O)C(=O)c2cc(C)cc3ccc(=O)n1c23)C=CC(C)(C)O4 (centres undefined)
pIC50: 4.12

(Q) Tell me the measured pIC50 of COc1c2ccoc2c(OC)c2oc(=O)ccc12 , please.
(A) 4.00

(Q) Tell me the measured pIC50 of COc1cc2ccc(=O)oc2cc1OC , please.
(A) 4.26

(Q) Tell me the measured pIC50 of COc1cc2oc(=O)ccc2cc1CC=C(C)C , please.
(A) 4.29

(Q) Tell me the measured pIC50 of COc1cccc2c1C(=O)c1c(O)c3c(c(O)c1C2=O)C[C@@](O)(C(=O)CO)C[C@@H]3O[C@H]1C[C@H](N)[C@H](O)[C@H](C)O1 , please.
(A) 6.05

(Q) Tell me the measured pIC50 of Cc1cc2c3c(ccc(=O)n3C(O)(c3c(O)ccc4c(=O)c5c(O)cc6c(c5n(C)c34)C=CC(C)(C)O6)C2=O)c1 (centres undefined) , please.
(A) 4.15

(Q) Tell me the measured pIC50 of CC1(C)C=Cc2c(cc(O)c3c(=O)cc(-c4ccc(O)cc4)oc23)O1 , please.
(A) 4.25
